target: GMPPNP-loaded KRAS G12C (Homo sapiens, UniProt P01116, G12C); assay: KRAS G12C RAF Disruption Assay (HTRF); settings: recombinant GMPPNP-loaded KRAS G12C (5 nM), 20 min with compound; GST-RAF1 RBD (9 nM); HTRF signal; read-out: KRASG12C RAF Disruption Assay (IC50)
Sequence (P01116 1-188 isoform P01116-2 G12C): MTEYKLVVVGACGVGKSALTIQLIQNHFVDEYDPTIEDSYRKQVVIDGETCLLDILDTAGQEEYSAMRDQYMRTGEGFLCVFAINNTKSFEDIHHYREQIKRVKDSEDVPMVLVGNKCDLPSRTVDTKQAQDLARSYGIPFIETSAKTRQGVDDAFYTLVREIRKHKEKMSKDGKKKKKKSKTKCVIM
Assay endpoint: log10 of IC50 (log10 of the value in nM)

| Compound | log10 of IC50 |
| --- | --- |
| N#Cc1cccc2[nH]cc(-c3ncc4c(N5CCN(C(=O)/C(F)=C/c6nccs6)CC5)nc(OC[C@@]56CCCN5C[C@H](F)C6)nc4c3F)c12 | 2.99 |
| C#Cc1cccc2cccc(-c3ncc4c(N5CCN(C(=O)/C(F)=C/c6nccs6)C[C@H]5C)nc(OC[C@@]56CCCN5C[C@H](F)C6)nc4c3F)c12 | 2.77 |
| C#Cc1cccc2cccc(-c3ncc4c(N5CC6(CCN(C(=O)/C(F)=C/c7ncccn7)CC6)C5)nc(OC[C@@]56CCCN5C[C@H](F)C6)nc4c3F)c12 | 4.38 |
| C#Cc1c(F)ccc2cccc(-c3ncc4c(N5CCN(C(=O)/C(F)=C/c6nccs6)CC5)nc(OC[C@@]56CCCN5C[C@H](F)C6)nc4c3F)c12 | 1.64 |
| C#Cc1cccc2cccc(-c3ncc4c(N5CCC6(CCN6C(=O)/C(F)=C/c6ccccn6)C5)nc(OC[C@@]56CCCN5C[C@H](F)C6)nc4c3F)c12 (single isomer, unassigned) [Compound 104] | 4.20 |
| C#Cc1cccc2cccc(-c3ncc4c(N(C)C5CCN(C(=O)/C(F)=C/c6ccccn6)C5C)nc(OC[C@@]56CCCN5C[C@H](F)C6)nc4c3F)c12 (single isomer, unassigned) [Example 74 trans isomer 1] | 0.40 |
| C#Cc1c(F)ccc2cc(O)cc(-c3ncc4c(N5C[C@H]6CC[C@@H](C5)N6C(=O)/C(F)=C/c5nccn5C)nc(OC[C@@]56CCCN5C[C@H](F)C6)nc4c3F)c12 | 1.90 |
| N#CC[C@H]1CN(c2nc(OC[C@@]34CCCN3C[C@H](F)C4)nc3c(F)c(-c4cccc(O)c4)ncc23)CCN1C(=O)/C(F)=C/c1nccs1 | 2.64 |
| C#Cc1c(F)ccc2cc(O)cc(-c3ncc4c(N5CCN(C(=O)/C(F)=C/c6ccccn6)CC5)nc(OC[C@@H]5CCCN5CCCN=[N+]=[N-])nc4c3F)c12 | 1.04 |
| C#Cc1cccc2cccc(-c3ncc4c(N(C)[C@H]5CN(C(=O)/C(F)=C/c6ccccn6)C[C@H]5F)nc(OC[C@@]56CCCN5C[C@H](F)C6)nc4c3F)c12 | 1.48 |
| C#Cc1c(F)c(F)cc2cccc(-c3ncc4c(N5CCN(C(=O)/C(F)=C/c6ncccn6)CC5)nc(OC[C@@]56CCCN5C[C@H](F)C6)nc4c3F)c12 | 1.96 |
